Hi there, I'd appreciate the recorded EC50 for every entry that follows.
# assay info: Luminescence Cell-Based Dose Response HTS to Identify Inhibitors of 5'UTR Stem-Loop Driven Prion Protein mRNA Translation in H4 Neuroglioblastoma Cells. [Related pubchem assays: 1827 (Project Summary), 1813 (Primary HTS)]
# Assay type: functional
The source made the active and inactive calls. Cut-off read from the data, not from the text of the source: actives have a measured EC50 and inactives only a lower limit.

QUERY: Dear colleague, please send me the reported EC50 for `CCN(CC)CCn1c2ccccc2c2nc3ccc([N+](=O)[O-])cc3cc21` when you can.
RESULT: > 120 µM (not active)

QUERY: Check the records and state EC50 for `COc1ccc(-c2nn(-c3ccccc3)cc2/C=C/C(=O)NCCCn2ccnc2)cc1OC`
RESULT: > 120 µM (not active)

QUERY: Report EC50, nothing else, for this molecule: `CCCCCSc1nc(N2CCOCC2)c2c(c1C#N)CC(C)(C)OC2`
RESULT: 19.8 µM (active)

QUERY: Please indicate EC50 recorded for `COc1ccc(Nc2cc(C)nc(-n3nc(C)cc3C)n2)cc1`
RESULT: 0.142 µM (active)

QUERY: Please give the documented EC50 of `CCOC(=O)c1cnc2c(OC)cccc2c1N1CCN(c2ccccc2OC)CC1`
RESULT: > 120 µM (not active)

QUERY: Return the recorded EC50 value; entry: `COc1ccc(N/N=C/c2c(C(=O)O)ccc3ccccc23)cc1`
RESULT: 9.27 µM (active)
